For each entry below, report its logP value.
Assay: logP determination by HPLC on a reversed-phase column (C18), EEC Directive 79/831 Annex V.A8
Assay type: physicochemical
Details: HPLC, reversed-phase C18, acetonitrile (0.1% formic acid)/water (0.09% formic acid) gradient
Give a plain numeric answer without units written out.

What value of logP has been recorded for this entry: Cn1nc(C(F)(F)C(F)(F)F)c(C(F)(F)F)c1-n1cnc(-c2ccc(Cl)c(C(=O)NC3(C#N)CC3)c2)c1
3.38

Note, next up: Cn1nc(C(F)(F)C(F)(F)F)c(C(F)(F)F)c1-n1cnc(-c2cccc(C(=O)NCc3cccs3)c2)n1
4.05

Note, next up: Cn1nc(C(F)(F)C(F)(F)F)c(C(F)(F)F)c1-n1cnc(-c2ccc(Cl)c(C(=O)NC3CC3)c2)n1
3.72

Note, next up: Cn1nc(C(F)(F)C(F)(F)F)c(C(F)(F)F)c1-n1ccc(-c2ccc(Cl)c(C(=O)NC3CC3)c2)c1
4.08

Note, next up: Cn1nc(C(F)(F)C(F)(F)F)c(C(F)(F)F)c1-n1cnc(-c2cccc(C(=O)NC3CC3)c2)n1
3.50

Note, next up: Cn1nc(C(F)(F)C(F)(F)F)c(C(F)(F)F)c1-n1ccc(-c2ccc(Cl)c(C(=O)NC3(C#N)CC3)c2)c1
3.99

----------
Assay: logP determination by HPLC on a reversed-phase column (C18), EEC Directive 79/831 Annex V.A8
Type: physicochemical
Settings: HPLC on reversed-phase column (C18), acetonitrile/water with formic acid, EEC Directive 79/831 Annex V.A8
measure: logP
Give a plain numeric answer without units written out.

What value of logP has been recorded for this entry: CN(C(=O)c1cc(-c2cnn(-c3c(C(F)(F)F)c(C(F)(F)C(F)(F)F)nn3C)c2)ccc1Cl)C1(C#N)CC1
4.1

Note, next up: CCC(=O)N(C(=O)c1cc(-c2cnn(-c3c(C(F)(F)F)c(C(F)(F)C(F)(F)F)nn3C)c2)ccc1Cl)C1(C#N)CC1
4.63

Note, next up: Cn1nc(C(F)(F)C(F)(F)F)c(C(F)(F)F)c1-n1cc(-c2ccc(S(C)(=O)=O)c(C(=O)NC3CC3)c2)cn1
3.35

Note, next up: Cn1nc(C(F)(F)F)c([S+](C)[O-])c1-n1cc(-c2ccc(Cl)c(C(=O)NC3(C#N)CC3)c2)cn1 (centres unmarked)
2.16

Note, next up: CCOC1CC1NC(=O)c1cc(-c2cnn(-c3c(C(F)(F)F)c(C(F)(F)C(F)(F)F)nn3C)c2)ccc1Cl (centres unmarked)
3.73

Note, next up: Cn1nc(C(F)(F)C(F)(F)F)c(C(F)(F)F)c1-n1cc(-c2ccc(Cl)c(C(=O)NCC(F)(F)F)c2)cn1
4.17

Note, next up: Cn1nc(C(F)(F)C(F)(F)F)c(C(F)(F)F)c1-n1cc(-c2ccc(Cl)c(C(=O)NC3CC(S(C)(=O)=O)C3)c2)cn1 (centres unmarked)
3.24

Note, next up: CCN(C(=O)c1cc(-c2cnn(-c3c(C(F)(F)F)c(C(F)(F)C(F)(F)F)nn3C)c2)ccc1Cl)C1(C#N)CC1
4.33

Note, next up: Cc1ccc(-c2cnn(-c3c(C(F)(F)F)c(C(F)(F)C(F)(F)F)nn3C)c2)cc1C(=O)Nc1ccc(F)cc1
4.57

Note, next up: Cn1nc(C(F)(F)C(F)(F)F)c(C(F)(F)F)c1-n1cc(-c2ccc(Cl)c(C(=O)NC3C[S+]([O-])C3)c2)cn1 (centres unmarked)
3.03

Note, next up: Cn1nc(C(F)(F)F)c(C(=O)NC2CC2)c1-n1cc(-c2ccc(Cl)c(C(=O)NC3(C#N)CC3)c2)cn1
2.32

Note, next up: Cn1nc(C(F)(F)C(F)(F)F)c(C(F)(F)F)c1-n1cc(-c2ccc(Cl)c(C(=O)NCC(=O)NCC(F)(F)F)c2)cn1
3.65

Note, next up: Cn1nc(C(F)(F)F)c(CF)c1-n1cc(-c2ccc(Cl)c(C(=O)NC3(C#N)CC3)c2)cn1
2.89

Note, next up: Cn1nc(C(F)(F)C(F)(F)F)c(C(F)(F)F)c1-n1cc(-c2ccc([S+](C)[O-])c(C(=O)NC3CC3)c2)cn1 (centres unmarked)
3.19

Data provenance is patent US9487489B2.
